Data origin: patent US20080044360A1

target: T1, rat collagen, acid soluble, type I, rat tail (Upstate 08-115) (rat, UniProt P02454 152-1207; P02466 86-1125); assay: dried collagen assay; note: test concentration or dose not given here
T1 construct: tissue extract, gelled and dried in wells; also called dried rat collagen
T1 sequence (P02454 152-1207, chain 1 of 2): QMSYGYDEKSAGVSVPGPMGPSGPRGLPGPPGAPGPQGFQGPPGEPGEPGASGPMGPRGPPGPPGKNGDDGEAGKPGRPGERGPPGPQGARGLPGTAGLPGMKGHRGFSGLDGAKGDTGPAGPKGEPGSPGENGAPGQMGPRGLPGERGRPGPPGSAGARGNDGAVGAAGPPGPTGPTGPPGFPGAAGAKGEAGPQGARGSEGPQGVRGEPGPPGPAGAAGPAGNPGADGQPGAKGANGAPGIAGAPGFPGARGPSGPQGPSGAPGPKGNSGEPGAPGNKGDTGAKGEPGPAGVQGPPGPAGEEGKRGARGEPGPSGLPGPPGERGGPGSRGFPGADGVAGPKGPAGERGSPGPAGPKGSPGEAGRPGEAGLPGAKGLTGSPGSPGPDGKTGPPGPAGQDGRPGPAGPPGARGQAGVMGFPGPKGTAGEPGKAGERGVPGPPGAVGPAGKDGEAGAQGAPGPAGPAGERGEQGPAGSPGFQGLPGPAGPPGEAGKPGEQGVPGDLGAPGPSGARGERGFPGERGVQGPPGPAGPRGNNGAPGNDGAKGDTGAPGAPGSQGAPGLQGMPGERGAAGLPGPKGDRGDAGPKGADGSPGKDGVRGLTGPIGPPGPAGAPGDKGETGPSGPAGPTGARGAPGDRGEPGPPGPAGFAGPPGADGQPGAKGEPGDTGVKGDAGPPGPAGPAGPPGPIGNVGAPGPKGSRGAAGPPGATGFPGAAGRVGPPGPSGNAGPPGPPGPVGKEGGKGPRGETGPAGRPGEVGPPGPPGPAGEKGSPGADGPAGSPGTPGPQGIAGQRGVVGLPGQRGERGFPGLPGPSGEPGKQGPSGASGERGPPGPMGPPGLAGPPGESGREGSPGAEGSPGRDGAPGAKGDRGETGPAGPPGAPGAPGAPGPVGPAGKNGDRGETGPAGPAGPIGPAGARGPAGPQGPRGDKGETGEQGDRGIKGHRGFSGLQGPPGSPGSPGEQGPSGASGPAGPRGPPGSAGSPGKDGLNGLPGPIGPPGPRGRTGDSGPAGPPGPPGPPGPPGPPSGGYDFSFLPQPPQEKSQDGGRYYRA
T1 sequence (P02466 86-1125, chain 2 of 2): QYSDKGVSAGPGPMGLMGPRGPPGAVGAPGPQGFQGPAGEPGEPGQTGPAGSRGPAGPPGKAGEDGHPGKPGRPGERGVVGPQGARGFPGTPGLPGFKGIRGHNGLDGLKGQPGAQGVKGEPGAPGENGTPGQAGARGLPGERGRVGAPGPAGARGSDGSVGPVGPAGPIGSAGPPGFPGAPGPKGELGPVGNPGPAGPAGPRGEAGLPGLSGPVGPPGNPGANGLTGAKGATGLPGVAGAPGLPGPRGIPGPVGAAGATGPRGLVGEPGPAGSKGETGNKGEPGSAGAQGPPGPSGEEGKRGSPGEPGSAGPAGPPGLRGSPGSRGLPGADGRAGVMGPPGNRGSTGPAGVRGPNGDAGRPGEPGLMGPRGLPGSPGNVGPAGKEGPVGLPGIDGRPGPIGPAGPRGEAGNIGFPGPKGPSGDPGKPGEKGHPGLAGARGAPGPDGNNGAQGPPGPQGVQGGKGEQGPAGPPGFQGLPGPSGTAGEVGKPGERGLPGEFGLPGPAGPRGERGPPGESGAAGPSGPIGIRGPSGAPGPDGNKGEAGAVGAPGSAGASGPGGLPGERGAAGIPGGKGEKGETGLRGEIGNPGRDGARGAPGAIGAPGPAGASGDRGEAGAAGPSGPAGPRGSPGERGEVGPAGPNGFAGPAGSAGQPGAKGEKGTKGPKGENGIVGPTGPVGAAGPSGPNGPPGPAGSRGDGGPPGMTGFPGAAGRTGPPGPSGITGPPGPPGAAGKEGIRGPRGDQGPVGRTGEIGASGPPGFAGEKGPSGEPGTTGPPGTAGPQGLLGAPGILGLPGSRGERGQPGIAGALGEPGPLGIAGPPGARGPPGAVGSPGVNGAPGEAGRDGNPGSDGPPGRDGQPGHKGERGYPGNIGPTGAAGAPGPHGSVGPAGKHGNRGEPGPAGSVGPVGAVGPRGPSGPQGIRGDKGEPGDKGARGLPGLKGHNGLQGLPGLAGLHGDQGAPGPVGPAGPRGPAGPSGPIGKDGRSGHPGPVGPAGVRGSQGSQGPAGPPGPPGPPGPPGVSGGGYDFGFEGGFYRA
Bridge positions count the residues as written; N and C are the ends. Square brackets hold non-standard residues; d marks the D form. Ends that are not written are not given here.
measurementLabel: % bound (%)

P = GQWTCSGDEYTWHCNYE (disulfide 5-14 (inferred), cyclic, disulfide) [SEQ ID NO 122]
Q = YAACYQAGCWIW (disulfide 4-9 (inferred), cyclic, disulfide) [SEQ ID NO 132]
R = DWTCSGDHLTWKCNYG (disulfide 4-13 (inferred), cyclic, disulfide) [SEQ ID NO 117]
Exercise: Provide the items ranked by increasing % bound. I'd appreciate it if you listed the labels in the requested order.
Solution: R, Q, P

A = YHACYQ[dA]GCWIW (disulfide 4-9 (inferred); not fully specified (C-terminus); printed as YHACYQaGCWIW, cyclic, disulfide; also called YHACYQaGCWIW) [SEQ ID NO 158]
B = YHACYQAG[dC]WIW (disulfide 4-9 (inferred); not fully specified (C-terminus); printed as YHACYQAGcWIW, cyclic, disulfide) [SEQ ID NO 159]
Exercise: Hi, I'm comparing A with B and wondering which one has the bigger number for % bound. Any idea? # answer = label of selected item
Solution: A
